Target: human GHSR1a (Homo sapiens, UniProt Q92847)
Construct: expressed in transfected cells; host or cells: HEK293 Tetracycline-Inducible cell line, used as membranes
Sequence (Q92847 whole entry): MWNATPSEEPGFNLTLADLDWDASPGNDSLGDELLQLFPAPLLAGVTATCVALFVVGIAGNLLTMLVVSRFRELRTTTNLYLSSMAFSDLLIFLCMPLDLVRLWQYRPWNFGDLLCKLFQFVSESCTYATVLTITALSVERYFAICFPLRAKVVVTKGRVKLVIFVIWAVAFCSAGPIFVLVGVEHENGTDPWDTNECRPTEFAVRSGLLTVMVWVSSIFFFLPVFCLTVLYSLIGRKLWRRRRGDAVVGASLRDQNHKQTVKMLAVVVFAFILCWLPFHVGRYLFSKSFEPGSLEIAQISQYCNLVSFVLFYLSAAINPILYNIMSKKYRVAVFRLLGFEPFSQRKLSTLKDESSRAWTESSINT
Test: Human Ghrelin SPA Binding Assay
pKi for assorted compounds
pKi field: float, defined as -log10 of concentration (mol/L).

INSERT INTO results (compound, parameter, experimental_value) VALUES
  ('COc1ccc(CC(=O)N2CCC3(CC2)CN(C2CCc4cc(-c5cnccn5)ccc42)C3)nc1 (racemic)', 'pKi', 6.66),
  ('COc1ccc(CC(=O)N2CCC3(CC2)CN(C2CCc4cc(-c5ncc(OC)cn5)ccc42)C3)nc1 (racemic)', 'pKi', 7.20),
  ('Cc1ccc(CC(=O)N2CCC3(CC2)CN([C@@H]2CCc4cc(-n5nccn5)ccc42)C3)nc1', 'pKi', 7.26),
  ('Cc1cnc(-c2ccc3c(c2)CC[C@H]3N2CC3(CCN(C(=O)Cc4cn5nc(C)sc5n4)CC3)C2)nc1', 'pKi', 7.83),
  ('O=C(Cc1cn2ccccc2n1)N1CCC2(CC1)CN([C@@H]1CCc3cc(-c4ncccn4)ccc31)C2', 'pKi', 7.64),
  ('Cc1ccc(CC(=O)N2CCC3(CC2)CN([C@@H]2CCc4cc(-c5ccn(C)n5)ccc42)C3)nc1', 'pKi', 7.33);

// switching to the query compound
# return recorded pKi for entry Cc1nn2cc(CC(=O)N3CCC4(CC3)CN([C@@H]3CCc5cc(-c6ccc(C(N)=O)nc6)ccc53)C4)nc2s1 [Example 10F]
7.85
